tested.target: T1, monkey TIM-3 on CHOK1 stable cell line (CHOK1-cTIM-3) (monkey)
T1 chain: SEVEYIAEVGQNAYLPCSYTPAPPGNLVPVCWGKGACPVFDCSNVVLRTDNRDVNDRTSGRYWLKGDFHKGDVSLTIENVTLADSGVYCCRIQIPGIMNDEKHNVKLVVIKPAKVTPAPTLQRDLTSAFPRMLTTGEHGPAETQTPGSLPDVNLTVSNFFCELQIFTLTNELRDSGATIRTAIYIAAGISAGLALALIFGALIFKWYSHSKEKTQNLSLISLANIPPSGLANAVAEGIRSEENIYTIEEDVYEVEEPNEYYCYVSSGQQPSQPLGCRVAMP
protocol: FACS, CHOK1-cTIM-3 cells, 0.064 nM antibody
The label is condition met for Mean fluorescence intensity below 40 and condition not met for Mean fluorescence intensity equal to or exceeding 40.

Worked set:
39E5H1 fully human TIM-3 antibody (human IgG4, kappa) (antibody, V domains shown) VH: EVQLVESGGGLVQPGGSLRLSCAASGFTFSSYWMSWVRQAPGKGLEWVANIKRGGSERYYVDSVKGRFTISGDNAKNSVYLQMNSLRAEDTAVYYCARGSNWFDPWGQGTLVTVSS VL: ETVMTQSPAILSVSPGERATLSCRASQSVYSNLAWYQQKLGQAPRLLIYDASTRATGIPARFSGSGSGTEFTLTISSLQSEDFAVYYCQQYNNWPITFGQGTRLEIK :: condition not met
34B6D8 fully human TIM-3 antibody (human IgG4, kappa) (antibody, V domains shown) VH: EVQLVESGGGLVQPGGSLRLSCAASGFTFSTYWMTWVRQAPGKRLEWVANIKQGGGDKYYVDSVKGRFTISTDNAKNSLYLQMNSLRAEDTAVYYCARGSNWFDPWGQGTLVTVSS VL: EIVMTQSPATLSMSPGERATLSCRASQSVYDNLAWYQQKPGQAPRLLIYGASTRATGIPARFSGSGSGTEFTLTISSLQSEDFALYYCQQYTHWPITFGQGTRLEIK :: condition met
7A4F10 fully human TIM-3 antibody (human IgG4, kappa) (antibody, V domains shown) VH: EVQLLESGGGLVQPGGSLRLSCAASGFTFRTHLISWVRQAPGKGLEWVAAITGSGGSTYYADSVKGRFIISRDNSKNTLFLQMNSLRAEDTAVYYCAKDGGSGSYDDFWGQGTLVTVSS VL: ETVLTQSPVTLSLSPGERATLSCRASQSVGSYLAWYQQKPGQAPRLLIYDASNRATGIPARFSGSGSGTDFTLTISSLEPEDFAVYYCQQRSNWPPTFGQGTKVEIK :: condition met
134H3G6 fully human TIM-3 antibody (human IgG4, kappa) (antibody, V domains shown) VH: EVQLVESGGGLVQPGGSLRLSCAASGFTFSNSWMTWVRQAPGKGLEWVANIKQAGTEKYYVDSVKGRFTISRDNAKNSLYLQMNSLRAEDTAVYYCNSGSNYFDYWGQGTLVTVSS VL: EIVMTQSPATLSVSPGERATLSCRARQNFYSNLAWYQQKPGQAPRLLIYGASTRATGIPARFSGSGSGTEFTLTISSLQSEDFAVYYCQQYNNWPLTFGGGTKVEIK :: condition not met

Query: Find out if reported Mean fluorescence intensity for 18D2H2 fully human TIM-3 antibody (human IgG4, kappa) (antibody, V domains shown) VH: EVQLVESGGDLVQPGGSLRLSCAASGFTFSTYWMTWVRQAPGRGLEWVANIKQDGSAKYYVDSVKGRFTLSRDDAKNSLYLQMNSLRAEDTAVYYCARGSNWFDYWGQGTLVTVSS VL: ETVMTQSPATLSVSPGERATLSCRANQNVYSNLAWYQQKPGQAPRLLIYDASTRATGFPARFSGSGSGTEFTLTISSLQSEDFAVYYCQQYNNWPLTFGGGTKVEIK is less than 40
Result: condition not met

Query: Decide: Mean fluorescence intensity of 57F4E5 fully human TIM-3 antibody (human IgG4, kappa) (antibody, V domains shown) VH: EVQLVESGGGLVQPGGSLRLSCAASGFTFSSYWMSWVRQAPGKGLEWVANIKQDGSEKYYVDSVKGRFTISRDSAKNSLYLQMNSLRAEDTAMYFCARDSNFFDYWGQGTLVTVSS VL: ETVMTQSPATLSVSPGERATLSCRASQSVSSNLAWYQRKPGQAPRLLIYFSSTRATGIPARFSGSGSGTEFTLTISSLQSEDFAVYYCQQYNNWPLTFGGGTKVEIK strictly below 40?
Result: condition met
